From: patent US11286268B1

- target: recombinant eIF4E (Homo sapiens (Human))
- Sequence (P06730 whole entry): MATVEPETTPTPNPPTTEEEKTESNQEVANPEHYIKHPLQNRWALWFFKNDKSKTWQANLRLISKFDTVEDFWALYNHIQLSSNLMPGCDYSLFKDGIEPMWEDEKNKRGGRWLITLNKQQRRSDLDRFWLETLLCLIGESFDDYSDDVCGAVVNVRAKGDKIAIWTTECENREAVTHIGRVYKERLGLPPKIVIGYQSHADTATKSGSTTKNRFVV
- measurement_notes: Fluorescence polarization competition assay for eIF4E binding potency
- protocol_conditions: fluorescence polarization competition, 75 nM recombinant eIF4E, 20 nM EDA-m7GDP-ATTO-550; IC50 class; read-out: elF4E FP
- Experimental: Compounds were screened for eIF4E binding potency using a fluorescence polarization competition assay. All binding reactions were performed in fluorescence polarization buffer (FPB) containing 20 mM Tris pH 7.5, 100 mM NaCl, 1 mM DTT, and 0.02% Tween-20. Final binding reactions contained 75 nM recombinant eIF4E (Beryllium, custom order), 20 nM EDA-m^7GDP-ATTO-550 (Jena Bioscience, NU-827-550) and varying concentrations of the inhibitory compound of interest. […]
measured_endpoint: IC50

>  <molecule>
Cc1cc(-c2cc(Cl)ccc2OCCn2c(C)nc3cnc(C4CCC(F)(F)C4)c(C#N)c3c2=O)c2scc(C(=O)O)c2n1 (stereo not shown) [compound 930]

>  <target>
recombinant eIF4E (Homo sapiens (Human))

>  <IC50>
< 50 nM

$$$$
>  <molecule>
N#Cc1cc2c(=O)n(CCOc3ccc(Cl)cc3-c3cnc(C(F)F)c(C(=O)O)c3)cnc2cn1 [compound 109]

>  <target>
recombinant eIF4E (Homo sapiens (Human))

>  <IC50>
> 1000 nM

$$$$
>  <molecule>
Cc1cc(-c2cc(Cl)ccc2OCCn2c(C)nc3cc(C(F)(F)F)c(N4CCN(C5COC5)CC4)c(C#N)c3c2=O)c2scc(C(=O)O)c2n1 [compound 1242]

>  <target>
recombinant eIF4E (Homo sapiens (Human))

>  <IC50>
< 50 nM

$$$$

Which IC50 is listed for Cc1nc2cnc(N(C)C3CCN(CC(C)(F)F)CC3)c(C#N)c2c(=O)n1CC#Cc1ccc(Cl)cc1-c1ccnc2c(C(=O)NS(=O)(=O)CC(F)F)csc12 [compound 1105] ?
< 50 nM

Which IC50 is listed for Cc1cc(-c2cc(Cl)ccc2OCCn2c(C)nc3cc(C(F)(F)F)c(Cc4ccccn4)nc3c2=O)c2scc(C(=O)O)c2n1 [compound 390] ?
< 50 nM
